tested target: human full length active PARP1 (Homo sapiens)
Construct: human full length active PARP1 (CS207770, Merck); purchased Merck CS207770
Sequence (P09874 whole entry): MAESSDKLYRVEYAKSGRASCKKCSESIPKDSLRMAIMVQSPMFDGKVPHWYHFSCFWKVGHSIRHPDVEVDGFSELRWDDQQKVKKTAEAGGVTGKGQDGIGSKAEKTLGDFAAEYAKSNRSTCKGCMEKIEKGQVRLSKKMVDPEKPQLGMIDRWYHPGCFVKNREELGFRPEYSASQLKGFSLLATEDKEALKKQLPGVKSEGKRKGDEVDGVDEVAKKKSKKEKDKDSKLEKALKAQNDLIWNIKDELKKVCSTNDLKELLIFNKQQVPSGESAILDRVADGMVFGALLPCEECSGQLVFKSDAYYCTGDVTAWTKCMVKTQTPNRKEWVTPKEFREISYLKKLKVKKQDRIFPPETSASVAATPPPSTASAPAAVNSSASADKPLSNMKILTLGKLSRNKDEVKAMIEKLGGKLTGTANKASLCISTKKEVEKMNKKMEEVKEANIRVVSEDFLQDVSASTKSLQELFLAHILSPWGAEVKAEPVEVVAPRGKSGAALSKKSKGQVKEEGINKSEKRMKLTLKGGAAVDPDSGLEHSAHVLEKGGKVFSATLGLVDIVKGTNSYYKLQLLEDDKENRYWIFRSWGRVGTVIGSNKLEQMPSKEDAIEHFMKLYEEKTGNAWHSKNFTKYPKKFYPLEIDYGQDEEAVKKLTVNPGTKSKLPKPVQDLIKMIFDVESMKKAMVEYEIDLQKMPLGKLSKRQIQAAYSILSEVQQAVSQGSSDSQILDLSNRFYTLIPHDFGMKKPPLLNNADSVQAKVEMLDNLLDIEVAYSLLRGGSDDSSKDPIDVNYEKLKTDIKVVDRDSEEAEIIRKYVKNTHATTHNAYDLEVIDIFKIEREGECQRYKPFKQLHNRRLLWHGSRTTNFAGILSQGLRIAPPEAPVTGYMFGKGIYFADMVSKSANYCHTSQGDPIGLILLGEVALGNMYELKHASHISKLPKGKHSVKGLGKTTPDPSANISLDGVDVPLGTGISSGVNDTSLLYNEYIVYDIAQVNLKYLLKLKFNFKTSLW
method summary: PARP inhibitor assay, fluorescence-based (PARP1 Enzyme Activity Assay kit), PARP1
Type: biochemical

molecule | IC50, nM
OC[C@H]1OC([S][Au])[C@H](O)[C@@H](O)[C@@H]1O (stereo partly shown) [Aurothioglucose] | 120
